# System: Leukemia: SR, RPMI 8226, MOLT-4, K-562, HL-60, CCRF-CEM
# assay.name: Determination of EC50 in cancer cells, leukemia
# Format: cell-based
# condition.context: Leukemia cell lines; incubated at least 24 hours
metric.name: EC50

[Q] Read the entry `Nc1ncnc2c1c(=O)ccn2[C@@H]1O[C@H](CO)[C@@H](O)[C@H]1O` and write its reported EC50.
[A] 34 nM

The measured values listed here are drawn from patent US7081449B2.
